src = patent US10434112B2

TARGET ENTITY: human FPR2 receptor (Homo sapiens (Human))
Sequence (P25090 whole entry): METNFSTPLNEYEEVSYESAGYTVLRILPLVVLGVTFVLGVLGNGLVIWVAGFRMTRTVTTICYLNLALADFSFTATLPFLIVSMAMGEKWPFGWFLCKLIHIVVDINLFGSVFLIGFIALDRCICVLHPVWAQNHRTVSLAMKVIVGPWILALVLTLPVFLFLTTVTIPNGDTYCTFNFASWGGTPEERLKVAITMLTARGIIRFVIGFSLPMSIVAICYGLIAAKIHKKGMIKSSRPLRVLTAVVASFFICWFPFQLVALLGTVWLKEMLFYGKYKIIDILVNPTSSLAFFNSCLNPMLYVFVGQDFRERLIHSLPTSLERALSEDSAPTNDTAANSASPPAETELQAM
ASSAY DETAILS: FLIPR Ca+2 response in HEK-Gα16 cells stably expressing the human FPR2 receptor
CONDITION INFO: Table 4
pEC50: −log10 of the molar value.
QUANTITY: pEC50

// known answers, use as guide
COMPOUND: CC1(CCc2ccccc2F)NC(=O)N(NC(=O)Nc2ccc(Br)cc2)C1=O (stereo not drawn) [Compound 80]
QUANTITY: pEC50
MEASURED NUMBER: 7.84
//
COMPOUND: CC(=O)CNC(=O)[C@H](Cc1ccccc1)NC(=O)Nc1ccc(Br)cc1F [Compound 68]
QUANTITY: pEC50
MEASURED NUMBER: 7.91
//
COMPOUND: O=C(O)CNC(=O)[C@H](Cc1c[nH]c2ccccc12)NC(=O)Nc1ccc(Br)cc1 (stereo in doubt) [Compound 150]
QUANTITY: pEC50
MEASURED NUMBER: 8.85
//
COMPOUND: CC[C@H](C)[C@H](NC(=O)Nc1ccc(Br)cc1F)C(=O)NCC(N)=O [Compound 62]
QUANTITY: pEC50
MEASURED NUMBER: 7.99
//
COMPOUND: CCC(CC)(NC(=O)Nc1ccc(Br)cc1)C(=O)NCC(=O)O [Compound 113]
QUANTITY: pEC50
MEASURED NUMBER: 7.73

a. CC1(CCc2cccc(O)c2)NC(=O)N(NC(=O)Nc2ccc(Br)cc2)C1=O (stereo not drawn) [Compound 108]
b. O=C(Nc1ccc(Br)cc1F)N[C@@H](Cc1ccccc1)C(=O)NCCO [Compound 71]
c. CC(C)C[C@H](NC(=O)Nc1ccc(Br)cc1)C(=O)NCC(N)=O [Compound 77]
d. CSc1ccc(NC(=O)C2C(C(=O)O)C3CCC2C32CC2)cc1 (stereo not drawn) [Compound 29]
Request: Place the items in sequence of falling pEC50. Returns: the labels arranged in the requested order.
Response: c, a, d, b
(c: 8.96, a: 8.68, d: 8.15, b: 7.81)
